Target: serotonin transporter (Rattus norvegicus)
Construct: frontal cortical membranes prepared from male Sprague-Dawley rats; from tissue; host or cells: rat frontal cortex membranes
Sequence (P31652 whole entry): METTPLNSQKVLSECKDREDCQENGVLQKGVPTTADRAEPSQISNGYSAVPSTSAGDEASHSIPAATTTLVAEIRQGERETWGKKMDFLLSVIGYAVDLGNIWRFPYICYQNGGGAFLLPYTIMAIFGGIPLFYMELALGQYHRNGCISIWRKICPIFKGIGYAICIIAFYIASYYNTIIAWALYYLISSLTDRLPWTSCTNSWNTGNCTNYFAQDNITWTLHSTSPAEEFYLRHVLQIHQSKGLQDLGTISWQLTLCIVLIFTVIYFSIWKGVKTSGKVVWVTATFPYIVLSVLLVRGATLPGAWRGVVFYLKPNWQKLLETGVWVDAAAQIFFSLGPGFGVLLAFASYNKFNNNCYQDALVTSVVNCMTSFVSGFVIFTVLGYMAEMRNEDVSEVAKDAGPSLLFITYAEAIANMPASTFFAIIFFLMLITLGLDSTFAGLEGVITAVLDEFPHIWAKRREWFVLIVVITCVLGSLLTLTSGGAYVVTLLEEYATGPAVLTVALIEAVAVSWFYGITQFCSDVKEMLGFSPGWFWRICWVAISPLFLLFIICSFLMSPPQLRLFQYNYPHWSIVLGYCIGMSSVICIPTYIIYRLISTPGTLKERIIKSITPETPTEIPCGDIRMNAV
Experiment: serotonin transporter affinity, 3H-paroxetine binding to frontal cortical membranes
Set-up: species or system male Sprague-Dawley rats
Details: 3H-paroxetine 0.1 nM, rat frontal cortical membranes; read-out: ST (Ki)
measurement-kind: log10(Ki) (log10 of the value in nM)
Each number you see is log10 of Ki, and the unit inside the log is nM.

Examples from the recorded data:
>>> assay_result("COc1ccc(F)cc1OCCN[C@H]1CC[C@H](c2c[nH]c3cc(F)ccc32)CC1 [Example 2b]")
-0.38
>>> assay_result("Cn1cc([C@H]2CC[C@H](NCCOc3cc(F)cc4c3OCCC4)CC2)c2cc(C#N)ccc21 [Example 5d]")
1.33
>>> assay_result("Fc1ccc2[nH]cc([C@H]3CC[C@@H](NCCOc4cccc5c4OCCO5)CC3)c2c1 [Example 4a]")
1.26
>>> assay_result("N#Cc1ccc2[nH]cc([C@H]3CC[C@H](NCCOc4cc(F)cc5c4OCC5)CC3)c2c1 [Example 6b]")
0.18
>>> assay_result("N#Cc1ccc2[nH]cc([C@H]3CC[C@@H](NCCOc4cc(F)cc5c4OCC5)CC3)c2c1 [Example 6a]")
0.03
>>> assay_result("COc1cc(F)ccc1OCCN[C@H]1CC[C@H](c2c[nH]c3ccc(F)cc32)CC1 [Example 9b]")
0.52

Q: Reported log10(Ki), molecule COc1ccc(F)cc1OCCN[C@H]1CC[C@@H](c2c[nH]c3cc(F)ccc32)CC1 [Example 2a] : ____
Result: 0.08

Q: Cc1nc2c(OCCN[C@H]3CC[C@H](c4c[nH]c5ccc(F)cc54)CC3)cc(Cl)cc2[nH]1 [Example 8b] , same question.
Result: -0.28

Q: N#Cc1ccc2[nH]cc([C@H]3CC[C@@H](NCCOc4cc(F)cc5c4OCCC5)CC3)c2c1 [Example 5e] , same question.
Result: 0.44

Q: Fc1cc2c(c(OCCN[C@H]3CC[C@@H](c4c[nH]c5ccc(F)cc54)CC3)c1)OCCC2 [Example 5a] , same question.
Result: 1.11

Q: Cn1cc([C@H]2CC[C@@H](NCCOc3cc(F)cc4c3OCCC4)CC2)c2cc(C#N)ccc21 [Example 5c] , same question.
Result: -0.28

Q: N#Cc1ccc2[nH]cc([C@H]3CC[C@H](NCCOc4cc(F)cc5c4OCCC5)CC3)c2c1 [Example 5f] , same question.
Result: 0.41

Q: Fc1ccc2c(c1)[nH]cc2[C@H]1CC[C@H](NCCOc2cccc3c2OCCO3)CC1 [Example 4d] , same question.
Result: -0.68

Q: Fc1ccc2[nH]cc([C@H]3CC[C@H](NCCOc4cccc5c4OCCO5)CC3)c2c1 [Example 4b] , same question.
Result: 0.05

Q: Fc1ccc2c(c1)[nH]cc2[C@H]1CC[C@@H](NCCOc2cccc3c2OCCO3)CC1 [Example 4c] , same question.
Result: 0.80

Q: Fc1cc2c(c(OCCN[C@H]3CC[C@H](c4c[nH]c5ccc(F)cc54)CC3)c1)OCCC2 [Example 5b] , same question.
Result: 0.18

Provenance of the data: patent EP1068184B1
